Tested target: Cruzipain (Trypanosoma cruzi) (UniProt P25779)
Sequence (P25779 123-467 limits assumed): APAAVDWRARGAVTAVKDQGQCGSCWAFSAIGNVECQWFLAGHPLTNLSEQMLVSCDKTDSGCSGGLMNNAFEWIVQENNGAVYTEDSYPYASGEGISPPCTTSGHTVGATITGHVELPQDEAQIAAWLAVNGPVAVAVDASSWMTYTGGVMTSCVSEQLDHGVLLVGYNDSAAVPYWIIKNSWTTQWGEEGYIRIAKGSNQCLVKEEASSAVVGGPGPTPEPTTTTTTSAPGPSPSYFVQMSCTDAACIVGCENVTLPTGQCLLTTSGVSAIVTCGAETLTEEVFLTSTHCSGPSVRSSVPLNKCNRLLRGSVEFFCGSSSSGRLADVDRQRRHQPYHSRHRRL
Experiment: Inhibition of recombinant Trypanosoma cruzi cruzain using Z-Phe-Argaminomethylcoumarin as fluorogenic substrate preincubated at 100 uM for 10 mins before substrate addition by fluorimetry
Readout label: inhibition (%)

In [3]: df
Out[3]:
                                     smiles                             tested_target  readout_value
0  C/C(=N\Nc1nc(-c2ccc3ccccc3c2)cs1)c1ccccn1  Cruzipain (Trypanosoma cruzi) (UniProt P25779)             94
1  C(=N\Nc1nc(-c2ccc3ccccc3c2)cs1)/c1ccccn1  Cruzipain (Trypanosoma cruzi) (UniProt P25779)              3
2    Clc1ccc(-c2csc(N/N=C/c3ccccn3)n2)cc1Cl  Cruzipain (Trypanosoma cruzi) (UniProt P25779)             21
3     Cc1sc(N/N=C/c2ccccn2)nc1-c1ccc(Br)cc1  Cruzipain (Trypanosoma cruzi) (UniProt P25779)             10
4  O=[N+]([O-])c1ccc(-c2csc(N/N=C/c3ccccn3)n2)cc1  Cruzipain (Trypanosoma cruzi) (UniProt P25779)             12
5   C/C(=N/Nc1nc(-c2ccc(Cl)cc2)cs1)c1ccccn1  Cruzipain (Trypanosoma cruzi) (UniProt P25779)             -3
6   COc1ccc(-c2csc(N/N=C(\C)c3ccccn3)n2)cc1  Cruzipain (Trypanosoma cruzi) (UniProt P25779)             95
7       C/C(=N\Nc1nc(-c2ccccc2)cs1)c1ccccn1  Cruzipain (Trypanosoma cruzi) (UniProt P25779)             93

[1] Brc1ccc(-c2csc(N/N=C/c3ccccn3)n2)cc1
[2] N/C(S)=N/N=C/c1ccccn1
[3] C/C(=N\Nc1nc(-c2ccc(Br)cc2)c(C)s1)c1ccccn1
[4] C/C(=N\NC(N)=S)c1ccccn1
Q: Your job: order these 4 records by inhibition, ascending. Lab note: final answer is the ordered label list.
Ans: 2, 4, 3, 1

[I] C/C(=N\Nc1nc(-c2ccc(Cl)cc2Cl)cs1)c1ccccn1
[II] C/C(=N\Nc1nc(-c2ccc(Br)cc2)cs1)c1ccccn1
[III] Cc1ccc(-c2csc(N/N=C/c3ccccn3)n2)cc1
Q: Your job: order these 3 records by inhibition, ascending. Lab note: final answer is the ordered label list.
Ans: II, III, I
(II: -8%, III: 23%, I: 81%)
